Test protocol: qHTS Assay for Lipid Storage Modulators (AID 1519); further: on the % scale 0 is the no-effect control and ±100 the full control effect
Assay setup: Drosophila S3 cells, BODIPY lipid droplet/cell ratio, laser cytometry; at 57.5 µM (top of the series); cells loaded with oleic acid
Records with an inconclusive call do not appear.
Kindly supply the reported activity change, negative = inhibition values for the records listed here.
Write down the numeric answer in % and omit the unit.

// activity change, negative = inhibition lookup, compound = CC(=O)N1CC2CC(C1)c1cccc(=O)n1C2 (stereo unspecified) , result: -4.96

// activity change, negative = inhibition lookup, compound = COC(=O)N1CCC2(CCN(CC(C)C)CC2)CC1 , result: 0.631

// activity change, negative = inhibition lookup, compound = COc1cc2c(cc1-c1cc3cc4ccoc4cc3oc1=O)OCO2 , result: 16.5

// activity change, negative = inhibition lookup, compound = CS(=O)(=O)N1CCC2(CC1)CN(Cc1ccncc1)C2 , result: 4.09

// activity change, negative = inhibition lookup, compound = CNC1C2CN3CCC(O2)C13 (stereo unspecified) , result: 3.03

// activity change, negative = inhibition lookup, compound = N#Cc1cccc(NC(=O)N2CC3(CCN(C(=O)Oc4ccccc4)CC3)C2)c1 , result: 1.56

----------
Test protocol: qHTS assay for small molecule agonists of the antioxidant response element (ARE) signaling pathway measured by Nrf2-dependant transcriptional activity - cell viability counter screen (AID 720653); further: on the % scale 0 is the no-effect control and ±100 the full control effect
Assay setup: ARE-bla HepG2 viability, CellTiter-Glo ATP luminescence, 16 h; stronger effect = lower value
Records with an inconclusive call do not appear. The source made the active and inactive calls. The call rests on the fitted dose curve; in most records, active means well fitted cell-killing curve with a large enough effect in the repeat runs; inconclusive means weak or mixed curves; inactive means flat fitted curve, though single readings scatter.
Kindly supply the reported max response values for the records listed here.

// max response lookup, molecule = C=CC(C)=O , result: 0.624% (inactive)

// max response lookup, molecule = O=C(O)COc1ccc(Cl)cc1Cl , result: -0.488% (inactive) [middle of 4 runs]

// max response lookup, molecule = CC(Cl)Cl , result: -2.99% (inactive)

// max response lookup, molecule = COC1=CC(=O)OC(CCc2ccccc2)C1 (centres undefined) , result: -8.18% (inactive)

// max response lookup, molecule = Nc1ccccc1Cl , result: 8.24% (inactive)

// max response lookup, molecule = O=C(O)C1C2CCC(O2)C1C(=O)O (centres undefined) , result: -12.2% (inactive)

// max response lookup, molecule = C=C(C)C(=O)OCC1CO1 (centres undefined) , result: 1.28% (inactive)

// max response lookup, molecule = CCC(=O)Nc1ccc(Cl)c(Cl)c1 , result: -7.64% (inactive)

// max response lookup, molecule = CCCC(=O)Cl , result: 18.2% (inactive)

// max response lookup, molecule = CNC(=O)N(C)c1nnc(C(C)(C)C)s1 , result: 4.89% (inactive)

// max response lookup, molecule = c1nc[nH]n1 , result: 12.8% (inactive)

// max response lookup, molecule = S=C=Nc1cccc2ccccc12 , result: -2.47% (inactive)

// max response lookup, molecule = O=C(Cl)C(Cl)(Cl)Cl , result: -1.42% (inactive)

// max response lookup, molecule = C[C@]12CC[C@H]3[C@@H](CCC4=CC(=O)CC[C@@]43C)[C@@H]1CC[C@@H]2O , result: -2.92% (inactive)

----------
System: CP238
Test protocol: qHTS profiling for inhibitors of Plasmodium falciparum proliferation (AID 504749); further: nearly all actives have a fitted effect of over 60% in size
Assay setup: P. falciparum in erythrocytes, SYBR Green DNA, 72 h; series mostly up to 28.7 µM
Procedure: NIH National Institute of Allergy and Infectious Diseases [NIAID] NIH Chemical Genomics Center [NCGC] […] Because mature erythrocytes lack DNA, only Plasmodium-derived DNA is detected. NCGC Assay Protocol Summary: The SYBR Green viability assay was adapted from a method described previously (Plouffe et al., 2008). […] The following morning, fluorescence intensity at 485(14) nm excitation and 535(25) nm emission wavelengths was measured on an EnVision (Perkin Elmer) plate reader. […]
Inconclusive results are not listed. Active and inactive are the calls of the source. Calls come from the whole dose curve; as a rule, active = well fitted inhibition curve with a large enough effect; inconclusive = small, poorly fitted or top-dose-only effect; inactive = flat fitted curve, though single readings scatter.
Write down one outcome, taken from 1 for active, 0 for inactive

I'd appreciate the recorded outcome for O=[As]O[As]=O (stereo not given) from this test. 1

I'd appreciate the recorded outcome for O=c1ccc2cc(O[C@H]3O[C@@H](CO)[C@@H](O)[C@@H](O)[C@@H]3O)c(O)cc2o1 from this test. 0

I'd appreciate the recorded outcome for CC(C)N(CC[C@@](C(N)=O)(c1ccccc1)c1ccccn1)C(C)C from this test. 0

I'd appreciate the recorded outcome for C[C@@]12CCC(=O)C=C1C=C[C@H]1[C@H]3CC[C@](O)(CCC(=O)O)[C@]3(C)CC[C@@H]12 from this test. 0

I'd appreciate the recorded outcome for CC([C@H](O)c1ccccc1)N(C)C (stereo not given in full) from this test. 0

I'd appreciate the recorded outcome for COc1cc2c(cc1OC)[C@@]13CCN4CC5=CCOC6CC(=O)N2C1[C@H]6[C@@H]5C[C@@H]43 (stereo not given in full) from this test. 0

I'd appreciate the recorded outcome for CC(=O)O[C@H]1CC[C@@]2(C)C(=CC[C@@H]3[C@H]2CC[C@]2(C)C(=O)CC[C@H]32)C1 from this test. 0

I'd appreciate the recorded outcome for C[C@]12CC[C@H](O)CC1=CCC1C2CC[C@]2(C)C(=O)CC[C@@H]12 (stereo not given in full) from this test. 0

I'd appreciate the recorded outcome for ClC1=C(Cl)C2(Cl)C3C4CC(C5OC45)C3C1(Cl)C2(Cl)Cl (stereo not given) from this test. 0

I'd appreciate the recorded outcome for CCCC[N+]1(C)C2CC(OC(=O)C(CO)c3ccccc3)CC1C1OC12 (stereo not given) from this test. 0

----------
Test protocol: Confirmatory qHTS for VERO E6 Cytotoxicity Assay: Counterscreen for SARS-CoV-2 CPE Assay (AID 1508605); further: nearly all actives have a fitted effect of over 60% in size
Assay setup: cell viability luminescence; series mostly up to 20 µM
Records with an inconclusive call do not appear. Activity calls are given as the source filed them. The call rests on the fitted dose curve.
Write down one outcome, taken from TRUE for active, FALSE for inactive

I'd appreciate the recorded outcome for Cc1nc(C)c(CN2CCN(C(c3ccc(F)cc3)c3ccc(F)cc3)CC2)nc1C from this test. FALSE

I'd appreciate the recorded outcome for CC(C)(C)c1ccc(CN2CCN(C(c3ccccc3)c3ccc(Cl)cc3)CC2)cc1 (stereo not drawn) from this test. FALSE

I'd appreciate the recorded outcome for CC1CCN(C(c2ccc(F)cc2)c2ccc(C(C)C(=O)O)cc2-c2ccc(C(F)(F)F)cc2)CC1 (stereo not drawn) from this test. TRUE

I'd appreciate the recorded outcome for CCN(CC)CCCS(=O)(=O)N[C@H](CCc1ccccc1)c1nc(Cc2ccc(Br)cc2)no1 from this test. FALSE

I'd appreciate the recorded outcome for COC(=O)Nc1cc(Nc2cc(NC3CC3)c3ncc(C#N)n3n2)c(Cl)c(N2CCN(C)CC2)c1 from this test. TRUE

I'd appreciate the recorded outcome for COc1ccc2c(c1)[C@]1(C[C@H]1c1ccc3c(/C=C/c4ccc(CN5C[C@@H](C)O[C@@H](C)C5)cc4)n[nH]c3c1)C(=O)N2 from this test. FALSE

I'd appreciate the recorded outcome for COc1ccc2c(c1)N(C[C@H](C)CN(C)C)c1ccccc1S2 from this test. FALSE

I'd appreciate the recorded outcome for COc1ccc2c(c1)CN(C(=O)CCN1CCC(Cc3ccccc3)CC1)CCS2 from this test. FALSE

I'd appreciate the recorded outcome for CCC(C)C(=O)OC12C(OC(C)=O)C(C)C3(O)C(C=C(CO)CC4(O)C(=O)C(C)=CC43)C1C2(C)C (stereo not drawn) from this test. FALSE

I'd appreciate the recorded outcome for O=C1c2ccccc2-c2nc3nnnn3nc21 (tested in a mixture with another compound) from this test. TRUE

I'd appreciate the recorded outcome for NC(=O)c1cnc(N[C@@H]2CCCC[C@@H]2N)nc1Nc1cccc(-n2nccn2)c1 from this test. FALSE

I'd appreciate the recorded outcome for O=C(NCc1ccccc1)[C@H](Cc1ccccc1)NC(=O)[C@H]1O[C@@H]1C(=O)NCCc1ccc(O)cc1 from this test. FALSE

I'd appreciate the recorded outcome for COc1cc(NC(=O)Nc2cccc(CNC(=O)O[C@H]3CCOC3)c2)ccc1-c1cnco1 from this test. FALSE

I'd appreciate the recorded outcome for CC(C)(C)c1ccc(C(=O)Nc2cc(Cl)c(Br)cc2C(=O)O)cc1 from this test. TRUE

I'd appreciate the recorded outcome for CCC[C@@H](NC(=O)N1C(=O)C(CC)(CC)[C@@H]1Oc1ccc(C(=O)N2CCN(C)CC2)cc1)c1ccc2c(c1)OCO2 from this test. FALSE

I'd appreciate the recorded outcome for CCN(CC)CC1CCN(c2ncc3ncnc(Nc4ccc(F)c(Cl)c4)c3n2)CC1 from this test. TRUE

I'd appreciate the recorded outcome for COc1cc(-n2cnc3cc(-c4ccc(Cl)cc4)sc3c2=O)ccc1OCCN1CCCC1 from this test. FALSE

I'd appreciate the recorded outcome for CC[C@H](NC(=O)[C@H](CS(=O)(=O)CC1CC1)N[C@@H](c1ccc(F)cc1)C(F)(F)F)C(=O)C(=O)NC1CC1 from this test. FALSE

----------
Target under test: Rap guanine nucleotide exchange factor 4 (Homo sapiens) (UniProt Q8WZA2)
Sequence (Q8WZA2 whole entry, looked up): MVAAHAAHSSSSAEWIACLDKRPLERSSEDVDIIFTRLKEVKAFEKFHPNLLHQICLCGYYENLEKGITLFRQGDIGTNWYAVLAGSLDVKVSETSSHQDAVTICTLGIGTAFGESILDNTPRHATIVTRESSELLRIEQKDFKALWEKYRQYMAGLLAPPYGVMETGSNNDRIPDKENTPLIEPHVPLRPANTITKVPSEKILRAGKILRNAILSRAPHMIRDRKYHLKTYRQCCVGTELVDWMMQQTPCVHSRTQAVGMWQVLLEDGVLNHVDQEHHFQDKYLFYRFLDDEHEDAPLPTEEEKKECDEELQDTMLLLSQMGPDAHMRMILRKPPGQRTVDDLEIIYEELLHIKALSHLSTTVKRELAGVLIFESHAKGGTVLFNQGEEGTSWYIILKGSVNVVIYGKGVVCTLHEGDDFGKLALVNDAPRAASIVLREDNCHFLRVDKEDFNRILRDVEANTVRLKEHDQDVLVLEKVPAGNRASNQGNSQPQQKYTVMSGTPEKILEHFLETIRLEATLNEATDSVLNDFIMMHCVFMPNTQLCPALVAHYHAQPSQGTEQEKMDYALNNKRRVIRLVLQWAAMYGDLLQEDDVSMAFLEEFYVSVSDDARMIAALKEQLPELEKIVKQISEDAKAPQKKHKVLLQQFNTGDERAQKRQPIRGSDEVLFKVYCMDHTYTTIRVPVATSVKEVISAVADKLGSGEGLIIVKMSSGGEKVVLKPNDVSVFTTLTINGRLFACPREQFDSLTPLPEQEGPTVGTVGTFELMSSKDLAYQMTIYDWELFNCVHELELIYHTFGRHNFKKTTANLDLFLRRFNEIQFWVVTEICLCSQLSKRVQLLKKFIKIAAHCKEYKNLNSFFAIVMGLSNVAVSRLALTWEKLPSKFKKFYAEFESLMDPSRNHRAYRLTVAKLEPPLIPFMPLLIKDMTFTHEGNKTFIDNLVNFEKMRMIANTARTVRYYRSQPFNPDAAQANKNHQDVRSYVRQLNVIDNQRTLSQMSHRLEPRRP
Test protocol: Confirmatory qHTS for agonist of cAMP-regulated guanine nucleotide exchange factor 4 (EPAC2) (AID 1645884);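 further: nucleotide exchange releases bodipy-GDP from Rap1 and this lowers its fluorescence; on the % scale 0 is the no-effect control and ±100 the full control effect; nearly all actives have a fitted effect of over 65% in size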
Assay setup: EPAC2 GEF activity, Rap1B-BODIPY-GDP fluorescence; series mostly up to 154 µM
Inconclusive results are not listed. Activity calls are given as the source filed them. The call rests on the fitted dose curve; in most records, active means well fitted activation curve with a large enough effect; inconclusive means small, poorly fitted or top-dose-only effect; inactive means no such curve, though single readings can be large or run the other way.
Measurement type: activation

Some compounds with recorded activation:
compound=O=C1NC(=O)N(Cc2ccc(F)cc2)C(=O)/C1=C\c1ccc([N+](=O)[O-])s1 target_under_test="Rap guanine nucleotide exchange factor 4 (Homo sapiens) (UniProt Q8WZA2)" assay_result=inactive
compound=Cc1cccc(N2C(=O)NC(=O)/C(=C\c3cccn3-c3ccc(Cl)cc3)C2=O)c1 target_under_test="Rap guanine nucleotide exchange factor 4 (Homo sapiens) (UniProt Q8WZA2)" assay_result=inactive
compound=Cc1cccc(CN2C(=O)CN=C(c3ccccc3)c3ccccc32)c1 target_under_test="Rap guanine nucleotide exchange factor 4 (Homo sapiens) (UniProt Q8WZA2)" assay_result=inactive
compound="Cc1cc2ccccn2c1C(C[N+](=O)[O-])c1c(F)cccc1Cl (stereo not given)" target_under_test="Rap guanine nucleotide exchange factor 4 (Homo sapiens) (UniProt Q8WZA2)" assay_result=inactive
compound=Cc1ccc(CN2CCCN(Cc3ccccc3C)S2(=O)=O)cc1 target_under_test="Rap guanine nucleotide exchange factor 4 (Homo sapiens) (UniProt Q8WZA2)" assay_result=inactive

// activation lookup, compound = CC(C)CCn1c(=O)c(C(=O)Nc2ccccc2S(N)(=O)=O)c(O)c2ccccc21 , result: inactive

// activation lookup, compound = Cc1ccc(N2C(=O)NC(=O)/C(=C\C=C\c3ccco3)C2=O)cc1C , result: inactive

// activation lookup, compound = CC1=C(O)C(=O)C=C2C1=CC=C1C2(C)CCC2(C)C3CC(C)(C(=O)O)CCC3(C)CCC12C (stereo not given) , result: inactive

Source of measurements: PubChem BioAssay (NCATS)
